- Assayed target: human PD-L1 (human) (UniProt Q9NZQ7)
- Sequence (Q9NZQ7 19-290): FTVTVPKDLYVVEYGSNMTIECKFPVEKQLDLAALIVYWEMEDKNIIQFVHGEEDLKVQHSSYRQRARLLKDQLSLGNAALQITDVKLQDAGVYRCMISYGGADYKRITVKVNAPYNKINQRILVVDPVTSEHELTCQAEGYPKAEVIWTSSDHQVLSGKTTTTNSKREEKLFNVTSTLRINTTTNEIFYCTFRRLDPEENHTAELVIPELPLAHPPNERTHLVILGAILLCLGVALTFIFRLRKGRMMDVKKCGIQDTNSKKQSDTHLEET
- Test name: flow cytometry, CHO cells expressing huPD-L1
Measure name: MFI at 33.3 nM (MFI)
Record the value in MFI, omitting the unit from your answer.

Binder	MFI at 33.3 nM / MFI
variant CD80 IgV-Fc Q33L/E35D/M43I/L85Q/R94W (Fc fusion) VIHVTKEVKEVATLSCGHNVSVEELAQTRIYWLKDKKMVLTMISGDMNIWPEYKNRTIFDITNNLSIVILALRPSDEGTYECVVQKYEKDAFKWEHLAEVTLSVKAD	29000
variant CD80 IgV-Fc E35D/M47I/L85Q/D90G (Fc fusion) VIHVTKEVKEVATLSCGHNVSVEELAQTRIYWQKDKKMVLTMMSGDINIWPEYKNRTIFDITNNLSIVILALRPSDEGTYECVVQKYEKGAFKREHLAEVTLSVKAD	35700
variant CD80 IgV-Fc Q33L/E35D/M47V/L85Q (Fc fusion) VIHVTKEVKEVATLSCGHNVSVEELAQTRIYWLKDKKMVLTMMSGDVNIWPEYKNRTIFDITNNLSIVILALRPSDEGTYECVVQKYEKDAFKREHLAEVTLSVKAD	47400
variant CD80 IgV-Fc V22A/E35D/V68E/A71D (Fc fusion) VIHVTKEVKEVATLSCGHNVSAEELAQTRIYWQKDKKMVLTMMSGDMNIWPEYKNRTIFDITNNLSIEILDLRPSDEGTYECVVLKYEKDAFKREHLAEVTLSVKAD	1350
variant CD80 IgV-Fc Q33L/E35D/T41S/M47V (Fc fusion) VIHVTKEVKEVATLSCGHNVSVEELAQTRIYWLKDKKMVLSMMSGDVNIWPEYKNRTIFDITNNLSIVILALRPSDEGTYECVVLKYEKDAFKREHLAEVTLSVKAD	43800

get_value(item= variant CD80 IgV-Fc E35D/D46V/M47L (Fc fusion) VIHVTKEVKEVATLSCGHNVSVEELAQTRIYWQKDKKMVLTMMSGVLNIWPEYKNRTIFDITNNLSIVILALRPSDEGTYECVVLKYEKDAFKREHLAEVTLSVKAD , readout=MFI at 33.3 nM) returns 7990

For variant CD80 IgV-Fc Q33K/E35D/D46V/L85Q (Fc fusion) VIHVTKEVKEVATLSCGHNVSVEELAQTRIYWKKDKKMVLTMMSGVMNIWPEYKNRTIFDITNNLSIVILALRPSDEGTYECVVQKYEKDAFKREHLAEVTLSVKAD the binder record lists MFI at 33.3 nM as 26700

# MFI at 33.3 nM of variant CD80 IgV-Fc E35D/M47V/V68M/K89N (Fc fusion) VIHVTKEVKEVATLSCGHNVSVEELAQTRIYWQKDKKMVLTMMSGDVNIWPEYKNRTIFDITNNLSIMILALRPSDEGTYECVVLKYENDAFKREHLAEVTLSVKAD = 21800

The origin of these recorded values is patent US20220177587A1.
